tested.system: Glucagon receptor (Homo sapiens, UniProt P47871)
Sequence (P47871 whole entry): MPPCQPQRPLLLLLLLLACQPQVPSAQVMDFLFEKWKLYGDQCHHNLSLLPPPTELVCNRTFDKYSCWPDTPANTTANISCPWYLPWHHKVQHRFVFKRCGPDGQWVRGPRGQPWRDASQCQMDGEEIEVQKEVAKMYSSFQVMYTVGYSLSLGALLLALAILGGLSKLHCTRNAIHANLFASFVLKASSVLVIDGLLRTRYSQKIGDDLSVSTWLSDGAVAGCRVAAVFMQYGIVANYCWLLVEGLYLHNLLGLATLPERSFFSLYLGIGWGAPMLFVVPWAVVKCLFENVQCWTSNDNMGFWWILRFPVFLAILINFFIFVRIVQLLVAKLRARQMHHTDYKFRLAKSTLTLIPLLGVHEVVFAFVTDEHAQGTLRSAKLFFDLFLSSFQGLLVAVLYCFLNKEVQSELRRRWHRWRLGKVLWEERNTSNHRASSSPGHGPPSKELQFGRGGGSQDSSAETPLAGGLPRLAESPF
test.details: Displacement of [125I]glucagon from human GCGR expressed in CHO cells
Type: cell-based
observation.type: IC50 (nM)

Worked examples follow.
{"columns": ["substance.smiles", "IC50 (nM)"],
 "data": [
  ["Cn1c(N(Cc2ccc(C(=O)Nc3nnn[nH]3)cc2)[C@H]2CC[C@H](C(C)(C)C)CC2)nc2cc(C(F)(F)F)ccc21", 11],
  ["Cc1ccc2[nH]c(N(Cc3ccc(C(=O)Nc4nnn[nH]4)cc3)[C@H]3CC[C@H](C(C)(C)C)CC3)nc2c1", 10]
]}

(1) Cc1ccc2[nH]c(N(Cc3ccc(C(=O)Nc4nnn[nH]4)cc3)c3ccc(Oc4ccc(Cl)cc4)c(Cl)c3)nc2c1
(2) Cc1cc2nc(N(Cc3ccc(C(=O)Nc4nnn[nH]4)cc3)[C@H]3CC[C@H](C(C)(C)C)CC3)n(C)c2cc1C
Query string: # return whichever of 1 and 2 has the smaller IC50 Write the label of whichever entry you select.
Result string: 2
(2: 6 nM, 1: 13 nM)

----------
tested.system: Glucagon receptor (Homo sapiens)
test.details: Antagonist activity against human GCGR expressed in CHO cells assessed as glucagon-induced cAMP accumulation
Format: functional, cell-based
Examples of compounds with documented IC50 follow.

Query string: Identify measured IC50 corresponding to `Cc1ccc2[nH]c(N(Cc3ccc(C(=O)Nc4nnn[nH]4)cc3)[C@H]3CC[C@H](C(C)(C)C)CC3)nc2c1`
Result string: > 1000 nM

Query string: Supply reported IC50 belonging to this compound: `Cn1c(N(Cc2ccc(C(=O)Nc3nnn[nH]3)cc2)[C@H]2CC[C@H](C(C)(C)C)CC2)nc2cc(O)ccc21`
Result string: > 1000 nM

Query string: Answer with reported IC50 of `Cc1ccc2[nH]c(N(Cc3ccc(C(=O)Nc4nnn[nH]4)cc3)c3ccc(Oc4ccc(Cl)cc4)c(Cl)c3)nc2c1`
Result string: > 1000 nM
